# target desc: D(2) dopamine receptor (Canis lupus familiaris)
# assay explanation: In vivo antagonism activity against dopamine D2 receptor was measured as emesis in dog when administered subcutaneously
# Assay type: functional, organism-based
property name: ED50

CCN(CC)CCNC(=O)c1cc(Cl)c(N)cc1OCC#N; > 3 mg/kg

IN: Which ED50 value belongs to CCN(CC)CCNC(=O)c1cc(Cl)c(N)cc1OC1CCCC[C@H]1OC (stereo partly specified) ?
OUT: > 3 mg/kg

IN: Quick one: ED50 for CCN(CC)CCN1C(=O)c2cc(Cl)c(NC=O)cc2OC(C)=C1C ?
OUT: > 3 mg/kg

IN: Any idea what its ED50 is? The compound is CCN(CC)CCNC(=O)c1cc(Cl)c(N)cc1OC [METOCLOPRAMIDE]
OUT: 0.36 mg/kg

IN: Entry CCN(CC)CCNC(=O)c1cc(Cl)c(N)cc1OC(C)/C(C)=N/O (stereo unspecified) has what ED50?
OUT: > 3 mg/kg

IN: Data request, read-out ED50, for CCCOc1cc(N)c(Cl)cc1C(=O)NCCN(CC)CC
OUT: > 3 mg/kg

====

# System: Mustela putorius furo
# assay explanation: In vivo antagonism of cisplatin-induced emesis in ferret measured as percentage protection for twice the dose of 3 mg/kg and in 3 ferrets
# Format: functional
Criterion: Protection strictly less than 80%. Met: t. Not met: f.

CCN(CC)CCNC(=O)c1cc(Cl)c(N)cc1OCc1ccccn1; f

IN: Hi there! Is Protection for C=C(C)COc1cc(N)c(Cl)cc1C(=O)NCCN(CC)CC below 80%, do you know?
OUT: t

IN: Input CCN(CC)CCNC(=O)c1cc(Cl)c(N)cc1OCC1CO1 (stereo not drawn) ; condition: Protection strictly below 80%. Does it hold?
OUT: t

IN: Does the reported Protection of the following compound sit strictly below 80%? C=CCOc1cc(N)c(Cl)cc1C(=O)NCCN(CC)CC
OUT: f

IN: Please state whether Protection is below 80% for CCN(CC)CCNC(=O)c1cc(Cl)c(N)cc1OCC(C)=O
OUT: f

IN: Identify whether the compound CCN(CC)CCNC(=O)c1cc(Cl)c(N)cc1OCC1COC(C)(C)O1 (stereo not drawn) records Protection below 80%.
OUT: t

IN: is_below(Protection, 80%) for CCN(CC)CCNC(=O)c1cc(Cl)c(N)cc1OCC(O)COC (stereo not drawn) ?
OUT: t

IN: Hi there! Is Protection for CCN(CC)CCNC(=O)c1cc(Cl)c(N)cc1OCC(C)OC (stereo not drawn) below 80%, do you know?
OUT: f

IN: Criterion: Protection strictly below 80%. Is it met by CCN(CC)CCN1C(=O)c2cc(Cl)c(NC=O)cc2OC(C)=C1C ?
OUT: f

IN: A record lists CCN(CC)CCNC(=O)c1cc(Cl)c(N)cc1OC(C)C#N (stereo not drawn) . Is its Protection below 80%?
OUT: t

IN: is_below(Protection, 80%) for CCN1CCCNC(=O)c2cc(Cl)c(N)cc2OCCOCC1 ?
OUT: t

IN: Below 80% on Protection? Entry CCN(CC)CCNC(=O)c1cc(Cl)c(N)cc1OCC1CCCO1 (stereo not drawn)
OUT: t

IN: Report whether reported Protection is lower than 80% (strictly) for CCN(CC)CCNC(=O)c1cc(Cl)c(N)c2c(C)c(C)oc12
OUT: t

Source: ChEMBL document CHEMBL1124174
